B1: library; a variant is named by its letters at N, in order (parent)
chain: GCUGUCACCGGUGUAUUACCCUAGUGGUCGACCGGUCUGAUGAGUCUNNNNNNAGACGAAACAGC

variants of: B1; assay: FACS-Seq fitted mean relative fluorescence mCherry/BFP without ligand (log10 relative fluorescence); ligand: hypoxanthine (xanthine aptamer); higher = higher reporter protein expression; conditions: HEK293T, ligand present: no
Measure: FACS-Seq fitted mean (log10)
Form rule: numeric answer, no unit written next to it.

variant_name=AGGUCA result_number=0.881

Proceed to the following item.
FACS-Seq fitted mean (log10) lookup needed for `AAAGGU` , thanks.
0.195
